Provenance of the data: PubChem BioAssay (NCI)

System: DU-145 prostate
Protocol Summary: NCI-60 one-dose screen, 48 h (100 = growth as untreated, 0 = no growth, -100 = all killed)
Settings: 10 µM unless noted
About 83,000 compounds went through this panel and 20% of them were active in at least one assay; those are over-represented in the sample as a whole.
Assign labels as follows, please: true (1) for growth below 70%; false (0) for growth equal to or exceeding 70%.

These recorded examples may help you get a feel for the data.
Compound: O=C(OCc1ccc2c(Cl)cc(Cl)c(O)c2n1)n1cncn1
Experimental System: DU-145 prostate
Class Label: true (1)

Compound: CC1(C)CC[C@]2(c3nnc(-c4ccncc4)o3)CC[C@H]3C(=CC[C@H]4[C@@]3(C)CC[C@H]3C(C)(C)C(=O)CC[C@]43C)[C@@H]2C1
Experimental System: DU-145 prostate
Class Label: false (0)

Compound: CC(C)c1ccc(COCc2cc(CN3CCCC3)c(O)c3ncccc23)cc1
Experimental System: DU-145 prostate
Class Label: true (1)

Compound: CCCNC(=O)Oc1ccc(/C(=C(/C)Cc2ccc(OC)cc2)c2ccc(OCCCN(C)C)cc2)cc1
Experimental System: DU-145 prostate
Class Label: false (0)

Compound: Nc1ncnc2c1N=C(c1ccc3c(c1)OCO3)CC(c1cccc(Nc3ccnc4cc(Cl)ccc34)c1)N2 (centres undefined)
Experimental System: DU-145 prostate
Class Label: true (1)

Compound: CC1=C(CCC(C)N(C)Cc2ccc(OCCCN3CCCC3)cc2)C(C)(C)CCC1 (centres undefined)
Experimental System: DU-145 prostate
Class Label: true (1)

Compound: CC(=O)[C@@H]1CCC=C2CC[C@]3(C)[C@@H](CC[C@@H]4[C@@]5(C)CCCNC(C)(C)[C@@H]5CC[C@]43C)[C@H]21
Experimental System: DU-145 prostate
Class Label: true (1)

Compound: COc1ccc(N2CCC(=O)NC2=S)cc1
Experimental System: DU-145 prostate
Class Label: false (0)

Confirm or reject: growth of CCC(C)N(c1ccc(Cl)cc1)c1nc(-c2ccc(Br)cc2)cs1 (centres undefined) lies strictly below 70%
false (0)

* * *

Test system: A549/ATCC NSCLC
Protocol Summary: NCI-60 one-dose screen, 48 h (100 = growth as untreated, 0 = no growth, -100 = all killed)
Settings: 10 µM unless noted
Compounds without any hit were thinned out: in the full panel of roughly 83,000, 20% have a hit. The source made the active and inactive calls. Rule for the calls: active = growth percent below 10; inactive = the rest.
Measurement Type: growth

Solved entries (count: 4):
Molecule: CCN(C(=O)N1CCN(c2cc3c(cc2F)c(=O)c(C(=O)O)cn3C2CC2)CC1)c1nc(-c2ccc(Cl)cc2)cs1
Reported: 12.9% (inactive)

Molecule: COC(=O)c1cc(-c2ccc(OC)cc2)[nH]c1N/N=C/c1c(Cl)cccc1Cl
Reported: 5.26% (active)

Molecule: COc1ccc(C(c2cc(OC)c(OC)c(OC)c2)N2CCN(c3ccccc3)CC2)cc1 (centres undefined)
Reported: 85.7% (inactive)

Molecule: COc1ccc(/C(C)=C(/c2ccc(OCCCN(C)C)cc2)c2ccc(OC(=O)Cc3ccccc3)cc2)cc1
Reported: 58.4% (inactive)

Given the molecule O=C(NNC(=O)c1ccc(-n2cc(-c3ccccc3)nn2)cc1)Nc1ccccc1 , write its reported growth.
102% (inactive)

* * *

Tested on: KM12 colon
Protocol Summary: NCI-60 one-dose screen, 48 h
Settings: 10 µM unless noted
The panel holds about 83,000 compounds, 20% with a hit somewhere; the sample as a whole holds those more often. Activity calls are given as the source filed them. The calls were made as follows: active = growth percent below 10; inactive = the rest.
Can you answer with just one of these options? active, inactive

Consider the worked cases shown below.
Compound: O=C1Nc2ccccc2/C1=C\c1nc(-c2ccccc2F)n2ccccc12
Experimental System: KM12 colon
Class Label: inactive

Compound: Cc1cc2c([nH]1)CSc1cc(S(=O)(=O)c3ccccc3)c(=O)[nH]c1-2
Experimental System: KM12 colon
Class Label: active

Compound: Nc1ncnc2c1N=C(c1ccc(Cl)cc1)CC(c1ccc3c(c1)OCO3)N2 (stereo not given)
Experimental System: KM12 colon
Class Label: inactive

What classification did COCCn1c(-c2csc(-c3cn(C)c4ccc(OC)cc34)n2)cc2cccnc21 end up with in this test?
inactive

// outcome(item) with item = COc1ccccc1Nc1nc2c(s1)C1=CC[C@H]3[C@@H]4CC[C@H]([C@H](C)CCCC(C)C)[C@@]4(C)CC[C@@H]3[C@@]1(C)CC2
inactive
